This listing pairs molecules with measured viability, T/C.
Test system: 521955-158-R2-J5-PDC complex spheroids, viability;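 also: spheroids also contain HUVEC endothelial cells and mesenchymal stem cells as stroma; compound exposure lasted seven days before the viability read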
assay-summary: Anticancer human tumor 521955-158-R2-J5-PDC patient-derived pancreatic carcinoma cell line growth inhibition [RAS]
conditions: second compound 1 µM; first compound 1 µM; stronger effect = lower value
Kindly answer with a numeric value in %, unit omitted.

molecule: CC(=O)OC12COC1CC(O)C1(C)C(=O)C(O)C3=C(C)C(OC(=O)C(O)C(NC(=O)OC(C)(C)C)c4ccccc4)CC(O)(C(OC(=O)c4ccccc4)C21)C3(C)C (configuration not stated) + C=CC(=O)N1CCN(c2nc(OCC3CCCN3C)nc3c(F)c(-c4nc(N)cc(C)c4C(F)(F)F)c(Cl)cc23)C(C)C1
endpoint: viability, T/C
quantitative-result: 22

Now for another entry.
Q. Look at this molecule and give its reported viability, T/C. C=CC(=O)Nc1cc(Nc2nccc(-c3cn(C)c4ccccc34)n2)c(OC)cc1N(C)CCN(C)C + C#Cc1c(F)ccc2cc(O)cc(-c3ncc4c(N5CC6CCC(C5)N6)nc(OCC56CCCN5CC(F)C6)nc4c3F)c12
A. 17.8
